- PROCEDURE DETAILS: Thermodynamic (shake-flask) solubility
- Type: physicochemical
- MEASUREMENT CONTEXT: aqueous buffer, thermodynamic from solid; pION universal buffer pH 7.4, 24 h; read-out: Solubility, pH 7.4, value
Attribute: solubility at 24 h
Just the number please, in µg/mL, no unit attached.

Would you please look over these solved cases?
Endpoint output: solubility at 24 h of `C[C@H]1CO[C@@H]2Cn3cc(C(=O)NCc4ncc(F)cc4F)c(=O)c(O)c3C(=O)N12` . Value?
196

Endpoint output: solubility at 24 h of `Cc1cc(CNC(=O)c2cn3c(c(O)c2=O)C(=O)N2[C@@H](C)CO[C@@H]2C3)c2ccccc2n1` . Value?
8

Endpoint output: solubility at 24 h of `C[C@H]1CO[C@@H]2Cn3cc(C(=O)NCc4nn(C)c(Cl)c4Cl)c(=O)c(O)c3C(=O)N12` . Value?
318

Endpoint output: solubility at 24 h of `C[C@H]1CO[C@@H]2Cn3cc(C(=O)NCc4ccc(F)nc4F)c(=O)c([O-])c3C(=O)N12.[Na+]` . Value?
1680

Endpoint output: solubility at 24 h of `C[C@H]1CO[C@@H]2Cn3cc(C(=O)NCc4ccncc4F)c(=O)c(O)c3C(=O)N12` . Value?
91

Continuing:
Endpoint output: solubility at 24 h of `C[C@H]1CO[C@@H]2Cn3cc(C(=O)NCc4c(F)cncc4F)c(=O)c(O)c3C(=O)N12` . Value?
380

Endpoint output: solubility at 24 h of `C[C@H]1CO[C@@H]2Cn3cc(C(=O)NCc4cccs4)c(=O)c(O)c3C(=O)N12` . Value?
24
